biological target: Substance-P receptor (Homo sapiens, UniProt P25103); assay: Binding affinity towards wild type human Wild-type tachykinin receptor 1 expressed in Chinese hamster ovary cells
Sequence (P25103 whole entry): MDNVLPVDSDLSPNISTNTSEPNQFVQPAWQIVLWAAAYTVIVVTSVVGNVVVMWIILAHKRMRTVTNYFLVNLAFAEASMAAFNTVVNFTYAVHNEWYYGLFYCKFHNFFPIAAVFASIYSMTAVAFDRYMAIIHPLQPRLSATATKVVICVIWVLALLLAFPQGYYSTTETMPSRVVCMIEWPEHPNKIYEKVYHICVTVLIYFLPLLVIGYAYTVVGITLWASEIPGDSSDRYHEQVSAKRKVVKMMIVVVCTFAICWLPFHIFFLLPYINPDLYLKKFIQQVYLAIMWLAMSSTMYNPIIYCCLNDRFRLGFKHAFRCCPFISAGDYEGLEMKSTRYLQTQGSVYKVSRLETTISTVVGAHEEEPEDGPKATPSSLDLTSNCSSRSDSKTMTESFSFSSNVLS
measurementLabel: pIC50
Please note pIC50 is a logarithmic value: minus log10 of concentration in mol/L. Answer with that number alone.

In [3]: df
Out[3]:
                                   molecule  measurementlabel  quantitativeresult
0  FC(F)(F)c1cc(CO[C@H]2C3CCN(CC3)[C@H]2Cc2ccccc2)cc(C(F)(F)F)c1             pIC50                6.71

Return reported pIC50; argument: Cc1cc(C)cc(CO[C@H]2C3CCN(CC3)[C@H]2C(c2ccccc2)c2ccccc2)c1 [L-706125]
8.70

What about FC(F)(F)c1cc(CO[C@H]2C3CCN(CC3)[C@H]2C(c2ccccc2)c2ccccc2)cc(C(F)(F)F)c1 [L-709210] ?
8.70

Then what about the molecule `Cc1cc(C)cc(CO[C@H]2C3CCN(CC3)[C@H]2Cc2ccccc2)c1` ?
6.53

Origin of measurements: ChEMBL document CHEMBL1128165
